Collected pIC50 for Maltase-glucoamylase (Homo sapiens, UniProt O43451) across several studies; molecules listed below.
pIC50: −log10 of the molar value.
value_kind: pIC50

INSERT INTO measurements (molecule, assay_target, value_kind, limit_qualifier, endpoint_result) VALUES
  ('C=CCc1cc(-c2ccc(O)c(CC=C)c2)c(O)c(C(c2cc(Cl)cc(Cl)c2)N2CCCCC2)c1 (configuration not stated)', 'Maltase-glucoamylase (Homo sapiens, UniProt O43451)', 'pIC50', '=', 4.63),
  ('C=C1CC[C@@H]2[C@](C)(COC(=O)c3cccnc3)[C@H](OC(=O)c3cccnc3)CC[C@@]2(C)[C@@H]1/C=C/C1=CC(=C\C(C)=C\CCC/C=C/C)/OC1=O', 'Maltase-glucoamylase (Homo sapiens, UniProt O43451)', 'pIC50', '=', 4.55),
  ('Cc1nc2ccccc2n(CC(=O)N/N=C/c2ccc(OCCn3cc(CN4CCOCC4)nn3)cc2)c1=O', 'Maltase-glucoamylase (Homo sapiens, UniProt O43451)', 'pIC50', '=', 4.38),
  ('COc1ccc(-c2oc3cc(OC)cc(OC)c3c(=O)c2OCCCCCCCCCCCN2C[C@H](O)[C@@H](O)[C@H](O)[C@H]2CO)cc1', 'Maltase-glucoamylase (Homo sapiens, UniProt O43451)', 'pIC50', '=', 6.62),
  ('C=C1CC[C@@H]2[C@](C)(CO)[C@H](O)CC[C@@]2(C)[C@@H]1/C=C/C1=CC(=C/C=C/c2ccccc2)/OC1=O', 'Maltase-glucoamylase (Homo sapiens, UniProt O43451)', 'pIC50', '=', 4.24),
  ('C=C1C(=O)O[C@@H]2/C=C(\C)[C@@H](O)C/C=C(\C)C[C@@H](OC(=O)/C(=C\C)COC(C)=O)[C@@H]12', 'Maltase-glucoamylase (Homo sapiens, UniProt O43451)', 'pIC50', '<', 4.60),
  ('COc1ccc(C(=O)Nc2cccc(C(=O)/C=C3/Nc4ccccc4NC3=O)c2)cc1', 'Maltase-glucoamylase (Homo sapiens, UniProt O43451)', 'pIC50', '=', 3.78);
